The reported numbers originate from the Immune Epitope Database (IEDB).

EXPERIMENTAL SYSTEM: HLA-A*02:06
EXPERIMENT DESCRIPTION: IEDB peptide-MHC binding, purified MHC/competitive/radioactivity; filed as Kd, often an IC50 or EC50 that approximates it; bounds were set here for any values at or beyond the usual limits of such assays
CONDITION SUMMARY: source organism: Vaccinia virus WR
METRIC: Kd (nM)
Give just the numeric value; nM need not be written.

# MACROMOLECULE SEQUENCE, Kd (nM)
measured = [
    ("TLNHVLALK", 14100),
    ("NLYKVYNGI", 817),
    ("AISYCRAFI", 146),
    ("DTGKKELAL", 14200),
    ("KTNTKHCPKI", 234),
]

Now for another entry.
Documented Kd of SQFSYKELYV : 71.4

* * *

EXPERIMENTAL SYSTEM: HLA-B*51:01
EXPERIMENT DESCRIPTION: IEDB peptide-MHC binding, purified MHC/competitive/fluorescence; filed as Kd, often an IC50 or EC50 that approximates it; bounds were set here for any values at or beyond the usual limits of such assays
CONDITION SUMMARY: source organism: Araucaria virus
pKd: −log10 of the molar value.
METRIC: pKd

Documented pKd of LYVAGVPEL : ≤ 4.70

* * *

EXPERIMENTAL SYSTEM: HLA-A*31:01
EXPERIMENT DESCRIPTION: IEDB peptide-MHC binding, purified MHC/competitive/radioactivity; filed as Kd, often an IC50 or EC50 that approximates it; bounds were set here for any values at or beyond the usual limits of such assays
CONDITION SUMMARY: source organism: Lymphocytic choriomeningitis virus (strain Armstrong)
METRIC: pKd
// pKd is dimensionless: -log10 of concentration (M)

Documented pKd of RCHDHYLCR : 6.04

* * *

EXPERIMENTAL SYSTEM: HLA-A*26:01
EXPERIMENT DESCRIPTION: IEDB peptide-MHC binding, purified MHC/competitive/radioactivity; filed as Kd, often an IC50 or EC50 that approximates it; bounds were set here for any values at or beyond the usual limits of such assays
CONDITION SUMMARY: source organism: Mammarenavirus guanaritoense
METRIC: Kd

Documented Kd of LFDVIPVSY : ≥ 51.9 µM

* * *

EXPERIMENTAL SYSTEM: HLA-A*24:02
EXPERIMENT DESCRIPTION: IEDB peptide-MHC binding, purified MHC/competitive/radioactivity; filed as Kd, often an IC50 or EC50 that approximates it; bounds were set here for any values at or beyond the usual limits of such assays
CONDITION SUMMARY: source organism: Mammarenavirus brazilense
METRIC: pKd
// pKd is dimensionless: -log10 of concentration (M)

Documented pKd of LTHSINALI : 5.17

* * *

EXPERIMENTAL SYSTEM: HLA-C*12:03
EXPERIMENT DESCRIPTION: IEDB peptide-MHC binding, purified MHC/direct/fluorescence; filed as Kd, often an IC50 or EC50 that approximates it; bounds were set here for any values at or beyond the usual limits of such assays
CONDITION SUMMARY: source organism: Homo sapiens
pKd by entry:
// pKd is dimensionless: -log10 of concentration (M)

# MACROMOLECULE SEQUENCE, pKd
measured = [
    ("YYWPRPRRY", 6.55),
]

Now for another entry.
Documented pKd of VMAPRTLIL : 6.40
